Tested on: Adreno-cortical cancer cell lines ACC01 and ACC07
Test: MTS cell proliferation assay, ACC01 and ACC07
Settings: 72 hrs, lines derived from Stage IV patients
Endpoint: cytotoxic effect / resistance of the cell lines

Compound: COC(=O)c1cc2c([nH]1)C(=O)C=C1N(C(=O)c3cc4cc(OC)c(OC)c(OC)c4[nH]3)C[C@H]3C[C@]123
Experimental system: Adreno-cortical cancer cell lines ACC01 and ACC07
Obs value: potent cytotoxic effects

Compound: COc1cccc2c1C(=O)c1c(O)c3c(c(O)c1C2=O)C[C@@](O)(C(=O)CO)C[C@@H]3O[C@H]1C[C@H](N)[C@H](O)[C@H](C)O1
Experimental system: Adreno-cortical cancer cell lines ACC01 and ACC07
Obs value: highly resistant

Compound: O=C1c2c(O)ccc(O)c2C(=O)c2c(NCCNCCO)ccc(NCCNCCO)c21
Experimental system: Adreno-cortical cancer cell lines ACC01 and ACC07
Obs value: highly resistant

Compound: COc1cccc2c1C(=O)c1c(O)c3c(c(O)c1C2=O)C[C@@](O)(C(=O)CO)C[C@@H]3OC1CC2C(OC3C(OC)OCCN23)C(C)O1 (stereo partly drawn)
Experimental system: Adreno-cortical cancer cell lines ACC01 and ACC07
Obs value: potent cytotoxic effects

Compound: CC(=O)O[C@H]1C(=O)[C@@]2(C)[C@H]([C@H](OC(=O)c3ccccc3)[C@]3(O)C[C@H](OC(=O)[C@H](O)[C@@H](NC(=O)c4ccccc4)c4ccccc4)C(C)=C1C3(C)C)[C@]1(OC(C)=O)CO[C@@H]1C[C@@H]2O
Experimental system: Adreno-cortical cancer cell lines ACC01 and ACC07
Obs value: highly resistant

Compound: Clc1ccc(C(c2ccccc2Cl)C(Cl)Cl)cc1 (stereo not drawn)
Experimental system: Adreno-cortical cancer cell lines ACC01 and ACC07
Obs value: highly resistant
